B1: NEUROD6 (parent)
chain: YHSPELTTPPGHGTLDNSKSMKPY

Variants of: B1
Assay: protein stability index of a GFP-peptide fusion (GPS, HEK-293T) (PSI 1-6); higher = more stable;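 further: lentivirally expressed fusions sorted by FACS into six bins by GFP to DsRed ratio, PSI derived from sequencing read proportions per bin multiplied by bin number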
Details: c terminus: a fixed tail appended
Listed here: items and their measured protein stability index.
// no unit, no text: just the number

For orientation, consider the following solved cases.
P23M; 1.98
S18I; 1.95
D16L; 1.98

What value of protein stability index has been reported for the following variant? S18R
2

Another: G13V
2.05
